The reported measurements were obtained from patent US20230218563A1.

- Method description: Phase 1 multiple ascending dose study, plasma pharmacokinetics in healthy adult males
- Format: in vivo
- Measurement parameters: male, human, oral, 75 mg, 75 mg once daily, fasted, Day 10, read-out: Tmax (median)
Parameter: Tmax (h)
# unit: h | format: bare number

Query: I have this compound here, [2H]c1c([2H])c([2H])c2c(C(=O)c3cc(Br)c(O)c(Br)c3)c(C(C)O)oc2c1[2H] (racemic) , and I need its recorded Tmax.
Reply: 1.5

* * *

- Target or test system: human URAT1 uptake transporter (Homo sapiens, UniProt Q96S37)
- Sequence (Q96S37 whole entry): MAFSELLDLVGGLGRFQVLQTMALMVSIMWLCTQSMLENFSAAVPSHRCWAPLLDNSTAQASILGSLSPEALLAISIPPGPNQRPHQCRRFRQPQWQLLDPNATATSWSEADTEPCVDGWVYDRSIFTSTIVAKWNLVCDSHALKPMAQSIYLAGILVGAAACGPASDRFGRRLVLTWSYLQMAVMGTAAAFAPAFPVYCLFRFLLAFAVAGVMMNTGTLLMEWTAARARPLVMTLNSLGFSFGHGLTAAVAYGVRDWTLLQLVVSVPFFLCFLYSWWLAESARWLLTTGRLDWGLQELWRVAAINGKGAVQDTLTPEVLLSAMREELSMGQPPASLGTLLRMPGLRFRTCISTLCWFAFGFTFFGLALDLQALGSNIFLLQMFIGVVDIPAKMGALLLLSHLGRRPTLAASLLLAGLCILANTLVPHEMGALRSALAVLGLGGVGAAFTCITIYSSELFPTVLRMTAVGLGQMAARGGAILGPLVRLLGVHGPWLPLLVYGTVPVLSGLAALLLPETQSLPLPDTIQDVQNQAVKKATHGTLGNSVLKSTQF
- Method description: Inhibition of URAT1 mediated uric acid uptake in MDCKII cells stably expressing human URAT1
- Measurement parameters: MDCKII cells expressing human URAT1; 20 μM uric acid probe; read-out: IC50, inhibition of URAT1 mediated uric acid accumulation
Parameter: pIC50
Lab note — pIC50 values are minus log10 of concentrations in M.

Query: I have this molecule here, [2H]c1c(O)c([2H])c2oc(C(C)O)c(C(=O)c3cc(Br)c(O)c(Br)c3)c2c1[2H] (stereo not shown) , and I need its recorded pIC50.
Reply: 6.04

* * *

- Method description: Phase 1 multiple ascending dose study, plasma pharmacokinetics in healthy adult males
- Type: in vivo
- Measurement parameters: male, human, oral, 75 mg, 75 mg once daily, fasted, Day 10
Parameter: Cmax (ng/mL)
# unit: ng/mL | format: bare number

Query: I have this molecule here, [2H]c1c([2H])c([2H])c2c(C(=O)c3cc(Br)c(O)c(Br)c3)c(C(C)O)oc2c1[2H] (racemic) [Compound 1] , and I need its recorded Cmax.
Reply: 6770

* * *

- Method description: Phase 1 single dose study, plasma pharmacokinetics in healthy adult males
- Format: in vivo, human
- Measurement parameters: male, human, plasma, po, 50 mg, 50 mg single oral, fasted; read-out: Geometric Least Squares Mean AUClast, Fasted
Parameter: AUC(0-t) (ng·h/mL)
# unit: ng·h/mL | format: bare number

Query: I have this molecule here, [2H]c1c([2H])c([2H])c2c(C(=O)c3cc(Br)c(O)c(Br)c3)c(C(C)O)oc2c1[2H] (racemic) , and I need its recorded AUC(0-t).
Reply: 57100

* * *

- Method description: Phase 1 single dose study, plasma pharmacokinetics in healthy adult males
- Format: in vivo, human
- Measurement parameters: male, human, plasma, po, 150 mg, 150 mg single oral, fasted, suspension (C4); read-out: Tmax (median)
- Procedure: The dose groups included Cohort 1 (15 mg or placebo, fasted, oral suspension), Cohort 2 (50 mg or placebo, fasted, suspension), Cohort 3 (100 mg or placebo, fasted, oral suspension), Cohort 4 (150 mg or placebo, fasted, oral suspension), Cohort 6 (50 mg or placebo, fed, oral suspension), and Cohort 7 (50 mg or placebo, fasted, oral capsule). […] An additional 8 subjects received placebo. […]
Parameter: Tmax (h)
# unit: h | format: bare number

Query: I have this compound here, [2H]c1c([2H])c([2H])c2c(C(=O)c3cc(Br)c(O)c(Br)c3)c(C(C)O)oc2c1[2H] (racemic) , and I need its recorded Tmax.
Reply: 4

* * *

- Method description: Phase 1 single dose study, plasma pharmacokinetics in healthy adult males
- Format: in vivo, human
- Measurement parameters: male, human, plasma, po, single oral doses 15 to 150 mg; read-out: average terminal half-life
Parameter: half-life

Query: I have this molecule here, [2H]c1c([2H])c([2H])c2c(C(=O)c3cc(Br)c(O)c(Br)c3)c(C(C)O)oc2c1[2H] (racemic) [Compound 1] , and I need its recorded half-life.
Reply: 10 to 13 h

* * *

- Method description: Phase 1 single dose study, plasma pharmacokinetics in healthy adult males
- Format: in vivo, human
- Measurement parameters: male, human, plasma, po, 150 mg, 150 mg single oral, fasted, suspension (C4); read-out: AUCinf (total)
- Method: The dose groups included Cohort 1 (15 mg or placebo, fasted, oral suspension), Cohort 2 (50 mg or placebo, fasted, suspension), Cohort 3 (100 mg or placebo, fasted, oral suspension), Cohort 4 (150 mg or placebo, fasted, oral suspension), Cohort 6 (50 mg or placebo, fed, oral suspension), and Cohort 7 (50 mg or placebo, fasted, oral capsule). […] An additional 8 subjects received placebo. […]
Parameter: AUC(0-inf) (µg·h/mL)
# unit: µg·h/mL | format: bare number

Query: I have this compound here, [2H]c1c([2H])c([2H])c2c(C(=O)c3cc(Br)c(O)c(Br)c3)c(C(C)O)oc2c1[2H] (racemic) , and I need its recorded AUC(0-inf).
Reply: 173

* * *

- Method description: Phase 1 multiple ascending dose study, plasma pharmacokinetics in healthy adult males
- Format: in vivo
- Measurement parameters: male, human, oral, 25 mg, 25 mg once daily, fasted, Day 10
Parameter: Cmax
A complete answer gives the number followed by the unit.

Query: I have this compound here, [2H]c1c([2H])c([2H])c2c(C(=O)c3cc(Br)c(O)c(Br)c3)c(C(C)O)oc2c1[2H] (racemic) , and I need its recorded Cmax.
Reply: 2480 ng/mL

* * *

- Method description: Phase 1 single dose study, plasma pharmacokinetics in healthy adult males
- Format: in vivo, human
- Measurement parameters: male, human, plasma, po, 50 mg, 50 mg single oral, fed, suspension (C6); read-out: AUC0-24 (total)
Parameter: AUC(0-t) (ng·h/mL)
# unit: ng·h/mL | format: bare number

Query: I have this compound here, [2H]c1c([2H])c([2H])c2c(C(=O)c3cc(Br)c(O)c(Br)c3)c(C(C)O)oc2c1[2H] (racemic) [Compound 1] , and I need its recorded AUC(0-t).
Reply: 34000

* * *

- Method description: Phase 1 single dose study, plasma pharmacokinetics in healthy adult males
- Assay type: in vivo, human
- Measurement parameters: male, human, plasma, po, 50 mg, 50 mg single oral, fasted, suspension (C2); read-out: Vz/F
Parameter: Vd/F (L)
# unit: L | format: bare number

Query: I have this compound here, [2H]c1c([2H])c([2H])c2c(C(=O)c3cc(Br)c(O)c(Br)c3)c(C(C)O)oc2c1[2H] (racemic) , and I need its recorded Vd/F.
Reply: 16

* * *

- Method description: Phase 1 single dose study, plasma pharmacokinetics in healthy adult males
- Assay type: in vivo, human
- Measurement parameters: male, human, plasma, po, 50 mg, 50 mg single oral, fed, suspension (C6); read-out: Vz/F
Parameter: Vd/F (L)
# unit: L | format: bare number

Query: I have this molecule here, [2H]c1c([2H])c([2H])c2c(C(=O)c3cc(Br)c(O)c(Br)c3)c(C(C)O)oc2c1[2H] (racemic) [Compound 1] , and I need its recorded Vd/F.
Reply: 16.3

* * *

- Method description: Phase 1 single dose study, plasma pharmacokinetics in healthy adult males
- Format: in vivo, human
- Measurement parameters: male, human, plasma, po, 50 mg, 50 mg single oral, fasted, suspension (C2); read-out: AUCinf (total)
Parameter: AUC(0-inf) (ng·h/mL)
# unit: ng·h/mL | format: bare number

Query: I have this compound here, [2H]c1c([2H])c([2H])c2c(C(=O)c3cc(Br)c(O)c(Br)c3)c(C(C)O)oc2c1[2H] (racemic) [Compound 1] , and I need its recorded AUC(0-inf).
Reply: 59600

* * *

- Method description: Phase 1 single dose study, plasma pharmacokinetics in healthy adult males
- Type: in vivo, human
- Measurement parameters: male, human, plasma, po, 100 mg, 100 mg single oral, fasted, suspension (C3); read-out: t1/2 (converted)
Parameter: half-life
A complete answer gives the number followed by the unit.

Query: I have this compound here, [2H]c1c([2H])c([2H])c2c(C(=O)c3cc(Br)c(O)c(Br)c3)c(C(C)O)oc2c1[2H] (racemic) , and I need its recorded half-life.
Reply: 12.5 h

* * *

- Method description: Phase 1 multiple ascending dose study, plasma pharmacokinetics in healthy adult males
- Assay type: in vivo
- Measurement parameters: male, human, oral, 50 mg, 50 mg once daily, fasted, Day 10
- From the text: An additional 6 subjects received placebo. Accumulation were approximately 1.3 to 1.4 fold for C. and 1.4 to 1.5 fold for AUC0.24 (Table 12 and FIG. 8).
Parameter: Cmax (ng/mL)
# unit: ng/mL | format: bare number

Query: I have this molecule here, [2H]c1c([2H])c([2H])c2c(C(=O)c3cc(Br)c(O)c(Br)c3)c(C(C)O)oc2c1[2H] (racemic) , and I need its recorded Cmax.
Reply: 4590

* * *

- Method description: Phase 1 single dose study, plasma pharmacokinetics in healthy adult males
- Format: in vivo, human
- Measurement parameters: male, human, plasma, po, 100 mg, 100 mg single oral, fasted, suspension (C3); read-out: AUC0-24 (total)
Parameter: AUC(0-t) (ng·h/mL)
# unit: ng·h/mL | format: bare number

Query: I have this compound here, [2H]c1c([2H])c([2H])c2c(C(=O)c3cc(Br)c(O)c(Br)c3)c(C(C)O)oc2c1[2H] (racemic) , and I need its recorded AUC(0-t).
Reply: 71000
